test target: Rat A2A receptor (Rattus norvegicus, UniProt P30543)
Construct: from tissue; host or cells: rat corpus striatum membrane preparation
Sequence (P30543 whole entry): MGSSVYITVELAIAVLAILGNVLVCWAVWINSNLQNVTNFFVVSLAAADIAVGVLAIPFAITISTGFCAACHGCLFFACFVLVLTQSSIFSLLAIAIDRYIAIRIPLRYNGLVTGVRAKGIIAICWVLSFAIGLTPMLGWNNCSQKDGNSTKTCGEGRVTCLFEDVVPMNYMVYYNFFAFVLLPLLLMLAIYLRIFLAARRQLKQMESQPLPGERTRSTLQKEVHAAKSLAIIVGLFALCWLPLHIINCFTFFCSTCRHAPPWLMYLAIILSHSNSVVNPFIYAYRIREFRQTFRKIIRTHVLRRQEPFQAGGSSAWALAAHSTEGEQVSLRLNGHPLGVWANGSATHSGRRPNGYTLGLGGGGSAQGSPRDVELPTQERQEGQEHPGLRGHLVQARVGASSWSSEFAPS
test: Adenosine A2A receptor binding test (3H-CGS 21680 binding)
applied conditions: 10^−6 mol/L test compound, rat corpus striatum
measured endpoint: Rat A2A receptor inhibition ratio (%)

compound: Nc1nc(N2CCN(Cc3ccc4c(c3)OCC(=O)N4)CC2)cc2nc(-c3ccco3)nn12
Rat A2A receptor inhibition ratio (%): 94
--
compound: Cc1cc(CN2CCN(c3cc4nc(-c5ccco5)nn4c(N)n3)CC2C)no1 (stereo not drawn)
Rat A2A receptor inhibition ratio (%): 84
--
compound: Nc1nc(N2CCN(Cc3cn4ccncc4n3)CC2)cc2nc(-c3ccco3)nn12
Rat A2A receptor inhibition ratio (%): 88
--
compound: Cc1nocc1CN1CCN(c2cc3nc(-c4ccco4)nn3c(N)n2)CC1
Rat A2A receptor inhibition ratio (%): 96
--
compound: Nc1nc(N2CCN(Cc3cn4cccnc4n3)CC2)cc2nc(-c3ccco3)nn12
Rat A2A receptor inhibition ratio (%): 90
--
compound: CCC(O)(CC)CCN1CCN(c2cc3nc(-c4ccco4)nn3c(N)n2)CC1
Rat A2A receptor inhibition ratio (%): 87
--
compound: COC(C)(C)CCN1CCN(c2cc3nc(-c4ccco4)nn3c(N)n2)CC1
Rat A2A receptor inhibition ratio (%): 88
--
compound: Nc1nc(N2CCN(Cc3ccc4c(c3)NC(=O)CO4)CC2)cc2nc(-c3ccco3)nn12
Rat A2A receptor inhibition ratio (%): 96
--
compound: CCC(C)(O)CCN1CCN(c2cc3nc(-c4ccco4)nn3c(N)n2)CC1 (stereo not drawn)
Rat A2A receptor inhibition ratio (%): 84
--
compound: Cc1onc(-c2ccccc2)c1CN1CCN(c2cc3nc(-c4ccco4)nn3c(N)n2)CC1
Rat A2A receptor inhibition ratio (%): 95
--
compound: Nc1nc(N2CCN(Cc3cn4ccccc4n3)CC2)cc2nc(-c3ccco3)nn12
Rat A2A receptor inhibition ratio (%): 92
--
compound: Cc1cc(C(C)N2CCN(c3cc4nc(-c5ccco5)nn4c(N)n3)CC2)no1 (stereo not drawn)
Rat A2A receptor inhibition ratio (%): 75
--
compound: CC(C)(O)CN1CCN(c2cc3nc(-c4ccco4)nn3c(N)n2)CC1
Rat A2A receptor inhibition ratio (%): 81
--
compound: CCC(C)(O)CN1CCN(c2cc3nc(-c4ccco4)nn3c(N)n2)CC1 (stereo not drawn)
Rat A2A receptor inhibition ratio (%): 84
--
compound: CC(O)(CN1CCN(c2cc3nc(-c4ccco4)nn3c(N)n2)CC1)c1ccccc1 (stereo not drawn)
Rat A2A receptor inhibition ratio (%): 93

###

Tested on: reserpine-induced catalepsy
test: Activity on reserpine-induced catalepsy
Format: in vivo, mouse
applied conditions: total catalepsy score of 10 mice (maximum 50 points); oral; reserpine 5 mg/kg s.c.; 1 hour after administration
measured endpoint: Total score
Form rule: numeric answer, no unit written next to it.

compound: COC(C)(C)CN1CCN(c2cc3nc(-c4ccco4)nn3c(N)n2)CC1 [Compound 6]
Total score: 11
//
compound: Cc1nocc1CN1CCN(c2cc3nc(-c4ccco4)nn3c(N)n2)CC1 [Compound 24]
Total score: 14
//
compound: Cc1cc(CN2CCN(c3cc4nc(-c5ccco5)nn4c(N)n3)CC2)no1 [Compound 21]
Total score: 17
//
compound: Nc1nc(N2CCN(Cc3nc4ccccc4s3)CC2)cc2nc(-c3ccco3)nn12 [Compound 19]
Total score: 19
//
compound: Nc1nc(N2CCN(CC3(O)CC3)CC2)cc2nc(-c3ccco3)nn12 [Compound 5]
Total score: 12
//
compound: Cc1cc(CN2CCN(c3cc4nc(-c5ccco5)nn4c(N)n3)CC2C)no1 (stereo not drawn) [Compound 22]
Total score: 13
//
compound: CC(C)(O)CCCCN1CCN(c2cc3nc(-c4ccco4)nn3c(N)n2)CC1 [Compound 14]
Total score: 12
//
compound: CC(C)(O)CCN1CCN(c2cc3nc(-c4ccco4)nn3c(N)n2)CC1 [Compound 7]
Total score: 23

Look up Total score for this compound: CC(C)(O)CN1CCN(c2cc3nc(-c4ccco4)nn3c(N)n2)CC1 [Compound 1] 14

###

Each entry below carries its recorded melting point.

Take a look at these entries with their results.
compound: CC(O)(CCN1CCN(c2cc3nc(-c4ccco4)nn3c(N)n2)CC1)c1ccccc1 (centres unmarked) [Compound 9]
melting point: 123 to 124 °C
//
compound: CCC(C)(O)CCN1CCN(c2cc3nc(-c4ccco4)nn3c(N)n2)CC1 (centres unmarked) [Compound 8]
melting point: 196 to 197 °C

Look up melting point for this compound: Nc1nc(N2CCN(Cc3cn4ccncc4n3)CC2)cc2nc(-c3ccco3)nn12 [Compound 16] 242 to 244 °C

Look up melting point for this compound: CCC(C)(O)CN1CCN(c2cc3nc(-c4ccco4)nn3c(N)n2)CC1 (centres unmarked) [Compound 2] 212 °C

Look up melting point for this compound: Nc1nc(N2CCN(Cc3cn4cccnc4n3)CC2)cc2nc(-c3ccco3)nn12 [Compound 17] 244 to 246 °C

###

measured endpoint: melting point

Take a look at these entries with their results.
compound: Nc1nc(N2CCN(Cc3ccc4c(c3)OCC(=O)N4)CC2)cc2nc(-c3ccco3)nn12 [Compound 26]
melting point: 287 to 288 °C

compound: COC(C)(C)CCN1CCN(c2cc3nc(-c4ccco4)nn3c(N)n2)CC1 [Compound 11]
melting point: 194 to 195 °C

Below: the item to evaluate.
Look up melting point for this compound: Cc1onc(-c2ccccc2)c1CN1CCN(c2cc3nc(-c4ccco4)nn3c(N)n2)CC1 [Compound 25] 244 to 246 °C

###

test target: Rat A2A receptor (Rattus norvegicus)
Construct: from tissue; host or cells: rat corpus striatum membrane preparation
test: Adenosine A2A receptor binding test (3H-CGS 21680 binding)
applied conditions: 10^−6 mol/L test compound, rat corpus striatum
Experimental: The final precipitate was suspended in 50 mmol/L Tris-HCl buffer (containing 10 mmol/L magnesium chloride and 0.02 unit/mg tissue of adenosine deaminase (manufactured by Sigma Co.)) by adding the buffer to the final precipitate so as to give a tissue concentration of 5 mg (wet weight)/mL. Inhibition ratio (%)={1−(amount of the binding in the presence of the test compound−amount of the non-specific binding)/(amount of the total binding−amount of the non-specific binding)}×100
measured endpoint: Rat A2A receptor inhibition ratio (%)

compound: Nc1nc(N2CCN(Cc3nc4ccccc4[nH]3)CC2)cc2nc(-c3ccco3)nn12
test target: Rat A2A receptor (Rattus norvegicus)
Rat A2A receptor inhibition ratio (%): 96
//
compound: Cc1cc(CN2CCN(c3cc4nc(-c5ccco5)nn4c(N)n3)CC2)no1
test target: Rat A2A receptor (Rattus norvegicus)
Rat A2A receptor inhibition ratio (%): 90
//
compound: Nc1nc(N2CCN(Cc3nc4ccccc4s3)CC2)cc2nc(-c3ccco3)nn12
test target: Rat A2A receptor (Rattus norvegicus)
Rat A2A receptor inhibition ratio (%): 95
//
compound: CC(O)(CCN1CCN(c2cc3nc(-c4ccco4)nn3c(N)n2)CC1)c1ccccc1 (stereo not shown)
test target: Rat A2A receptor (Rattus norvegicus)
Rat A2A receptor inhibition ratio (%): 89

###

Each entry below carries its recorded melting point.

compound: CC(O)(CN1CCN(c2cc3nc(-c4ccco4)nn3c(N)n2)CC1)c1ccccc1 (stereo not drawn)
measured endpoint: melting point
measured result: 267 to 268 °C

compound: Nc1nc(N2CCN(Cc3nc4ccccc4[nH]3)CC2)cc2nc(-c3ccco3)nn12
measured endpoint: melting point
measured result: 284 to 286 °C

Look up melting point for this compound: "Nc1nc(N2CCN(Cc3cn4ccccc4n3)CC2)cc2nc(-c3ccco3)nn12" 220 to 221 °C

Values from patent US6545000B1
